Provide the reported EC50 of each item.
# TESTED ON: KCNQ2/3 channels (Homo sapiens, UniProt O43525+O43526)
# METHOD SUMMARY: Fluorescence assay using a voltage-sensitive dye
# REPORTED CONDITIONS: CHO-K1 cells expressing KCNQ2/3 channels; agonistic activity
# Procedure: Fluorescence Assay Using a Voltage-Sensitive Dye […] The fluorescence measurements are carried out with a BMG Labtech FLUOstar™ or BMG Labtech POLARstar™ instrument (525 nm excitation, 560 nm emission, bottom-read mode). […] The fluorescence intensity of the dye is then measured for 5 min and the fluorescence value F1 of each well is thus determined at a given, constant time. […] The change in fluorescence is subsequently measured until all relevant measured values have been obtained (mainly 5-30 min). […]
Hi! Could you send only the number? It should be in µM, unit omitted.

Tell me the measured EC50 of COc1c(C)cc(C2CCc3nc(C(=O)N4CC5(C)CC4CC(C)(C)C5)cn3C2)cc1C (stereo not drawn) , please. 11.3

Entry Cc1cc(C)cc(C2CCc3nc(C(=O)N4CCN(c5cccc(C(F)(F)F)c5)CC4)cn3C2)c1 (stereo not drawn) : reported EC50 = ? 0.08

I have this molecule here, CC1CCN(C(=O)c2cn3c(n2)CCC(c2ccc(Oc4ccccc4)cc2)C3)CC1 (stereo not drawn) , and I need its recorded EC50. 8.4

// data source = patent US8288424B2
